Task for the reader: assign each of the following molecules its reported Kd.
Molecular target: T1, CCL18_HUMAN (Homo sapiens, UniProt P55774)
T1 sequence (P55774 21-89): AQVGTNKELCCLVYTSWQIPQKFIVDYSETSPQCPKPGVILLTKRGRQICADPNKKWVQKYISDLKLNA
Assay: Biolayer interferometry (BLI) binding
Numbers only here, please. The scale is nM.

I have this molecule here, P1180_AMBTR: tick CKBP, Amblyomma triste (protein, Amblyomma triste) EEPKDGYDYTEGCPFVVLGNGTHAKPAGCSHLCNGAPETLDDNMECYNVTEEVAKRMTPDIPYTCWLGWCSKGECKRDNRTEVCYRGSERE , and I need its recorded Kd.
5.8

What does the data say about its Kd? Entry: P467_RHIPU: tick CKBP (evasin), Rhipicephalus pulchellus; RPU-01 stated identical (protein, listed as Rhipicephalus pulchellus) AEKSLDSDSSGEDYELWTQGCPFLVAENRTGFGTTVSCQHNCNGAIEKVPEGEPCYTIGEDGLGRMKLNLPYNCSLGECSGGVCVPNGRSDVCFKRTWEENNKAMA
16.6

Kd lookup needed for P974_AMBCA: tick CKBP, Amblyomma cajennense; ACA-01 stated identical (protein, Amblyomma cajennense, tick CKBP, Amblyomma cajennense; ACA-01 stated identical) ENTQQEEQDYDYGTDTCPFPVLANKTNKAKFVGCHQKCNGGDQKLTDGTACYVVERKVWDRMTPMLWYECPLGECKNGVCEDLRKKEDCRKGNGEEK , thanks.
17

# input molecule: P1243_AMBAM: tick CKBP, Amblyomma americanum; AAM-02 stated identical (protein, listed as Amblyomma americanum) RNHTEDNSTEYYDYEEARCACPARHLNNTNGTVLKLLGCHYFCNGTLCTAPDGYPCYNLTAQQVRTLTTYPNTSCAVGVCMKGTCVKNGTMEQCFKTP ; wanted: its Kd
0.00501

// query Kd value for entry P991_AMBCA: tick CKBP, Amblyomma cajennense (protein, Amblyomma cajennense) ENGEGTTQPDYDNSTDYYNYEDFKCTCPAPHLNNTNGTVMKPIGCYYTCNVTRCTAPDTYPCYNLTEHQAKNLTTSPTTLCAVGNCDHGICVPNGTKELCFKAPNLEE
0.209
